# ASSAY: yeast display, Sf9 membrane polyspecificity reagent, FACS + sequencing; frameworks hold sequencing errors
OBSERVABLE: polyreactivity (PSR sort gate)

Guide cases for polyreactivity (PSR sort gate), answers given:
QVQLVESGGGLVQAGGSLRLSCAASGRTFHVYAMGWYRQAPGKERELVAAITWSGDSTYYADSVKGRFTISRDNAKNTVYLQMNSLNTEDTAVYYCAASKFWKYDYWGQGTQVTVSS: low polyreactivity
QVQLVESGGGLVQAGGSLRLSCAASGSISAAYAMGWYRQAPGKERELVADISSSGVSTYYADSVKGRFTISRDNAKNTVYLQMNSLKQEDTAVYYCAKNRVAGYRKYDYWGQGTQVTVSS: low polyreactivity
QVQLVESGGGLVQAGGSLRLSCAASGSIFVLNAMGWYRPAPGKDRELVAAITNVGSTYYADSVKGRFTISRDNAKNTVYLQMNSRKPEDTAVYYCNADPAEVLVGYDYWGQGTQVTVSS: low polyreactivity
QVQLVESGGGLVQAGGSLRLSCAASGSIFRFYVMGWYRPAPGKERELVAAISIGGSTNYADSVKGRFTISRDNAKNTVYLQMNSLKPEDTAVYYCAADYWYGAVLPHGTEFDYWGQGTQVTVSS: low polyreactivity
QVQLVESGGGLVQAGGSLRLSCAASGYIFWENAMGWYRQAPGKERELVAAITVSGGGTYYADSVKGRFTISRDNAKNSVYLQMNSLKPEVTAVYYCNVYDKAPAYDYWGQGTQVTVSS: low polyreactivity
QVQLVESGGGLVQAGGSLRLSCAASGSSFLSNTMGWYRQAPGKECELVAAITSGGDTSYADSVKGRFTISRDNAKNTVYLHMKILKADDTAVYYCNVDTSATCYSSEYDYWGQGTQVSVSS: low polyreactivity
QVQLVESGGGLVQAGGSLRLSCAASGSTIYPYAMGWYRQAPGKERELVASISGGGSTYYADSVKGRFTISRDNAKNTVYLQMNSLKPEDTAVYYCNAEFDLYWYRYYYWGQGTQVTVSS: high polyreactivity

Please give the documented polyreactivity (PSR sort gate) of QVQLVESGGGLVQAGGSLRLSCAASGRTFTGYTKGWYRQAPGKEREFVAAISSNGGRTYYADSVKGRFTISRDNAKNTVYLQMNSLKPEDTAVYYCAARYTFWGQGTQVTVSS
high polyreactivity

* * *

# ASSAY: yeast display, Sf9 membrane polyspecificity reagent, FACS + sequencing; frameworks hold sequencing errors
OBSERVABLE: polyreactivity (PSR sort gate)

QVQLVESGVGLVQAGRNLRLSCAASGIIFYLNAMGWYRQAPGKERELVAAISNGTSTNYADSVKGRFTISRDNAKNTVYLQMNSLKPEDTAVYYCAADDLRYNSRSSNYRGDSWGQGTQVTVSS: low polyreactivity
QVQLVESGGGLVQAGGSLRLSCAASGLTFIFYAMGWYRQAPGKERELVATIRRSGSTYYADSVKGRFTISRDNAKNTVYLQMNSLKPEDTAVYYCNARYPYSYGDYWGQGTQVTVSS: high polyreactivity
QVQLVQSGGGLVQAGGSLRLISAASGSIFRYNAMGWYRHAPGKEREFVAAITRSGGSTYADSVKGRFTISRDNAKNTLYLQIHSLKPEDTAVYYCAATFKWYSHSKPRFDYWGHGTQVTVSS: low polyreactivity
QVQLVESGGGLVQAGGSLRLSCAASGFTFNRYAMGWYRQAPGKERELVAAITRRGGSTYYADSVKGRFTISRDNAKNTVYLQMNSLKPEYSAVYYCNVDFQAYGIPMDYWGQGTQVTVSS: high polyreactivity
QVQHVDSGGGLDHAGGSLRLSCAASGSIFAGYAMGWYRQAPAKERELDAAISSTGGRTYYADSVKGRFTISRDNAKTSVYLQMNSLKPEDTAVYYCGGAYYASYYYWGQGTQVTVSS: high polyreactivity
QVQLVESGGGLVQAGGSLRLSCAASGRIFGSYTMGWYRQAPGKERELVAGISRRGGSTYYADSVKGRFTISRDNAKNTVYLQMNGLKPEDTAVYYCAAVSSVFSVRYDYWGQGTQVTVSS: high polyreactivity

Tell me measured polyreactivity (PSR sort gate) for QVQHEDSGGGLVQAGGSHRVSCAASGSTFAYNAMGGSRKAPGKERELVATISTDGSTYADSVKGRFTISRDNAQNTVYLQMNSLKPEDTAVYYCNADGHPSDPGYDYWGQGTQVTVSS please.
low polyreactivity

Using the record for QVQLVESGGGLFQAGGSLRLSCAASGRIFSYNNMGWYRQAPGKERELVAAISTSGGSTYYADSVKGRFTLSRDNAKNTVYLQMNSLKPEDTAVYYCNTVWTFRTSTNYDYWGQVTQVTVSS , state its measured polyreactivity (PSR sort gate).
low polyreactivity

Output polyreactivity (PSR sort gate) of QVQLVESGGGLVQAGGSLRLSCAASGYIFTYYAMGWYRQAPGKERELVAAISGSDGNTYYADSVKGRFTISRDNAKNTVYLQMTSLKPEDTAVYYCAKSGGLTFRSQRYDYWGQGTQVTVSS
low polyreactivity

Give the value of polyreactivity (PSR sort gate) reported for the following: QVQLVESGGGLVQAGGSLRLTCAASGSIFSYNVMGWYRQAPGKERELVAVITGSGGSTYYADSVKGRFTISRDNAKNTVYLQMYSLKPEDTAVYYCAATYSGWQWYETYYYWGQGTQVTVSS
low polyreactivity

Hello, please tell me recorded polyreactivity (PSR sort gate) for this one: QVQLVESGGRLLQAGGSLRLSCAASGIIFVYYDMGWYRQAPGKERELVAVITESGVSTYYADSVKGRFTISRDNAKKTVYLQMNSLKPEDTAVYYCDTSVDRGLGYWGQGTQVTVSS
low polyreactivity

Hello, please tell me recorded polyreactivity (PSR sort gate) for this one: QVQLVESGGGLVQAGGSLRLSCAASGLTFTGYAMGWYRQAPGKERELVASISRSGASTFYADSVKGRFTISRDNAKNTVYLQMNSLKPEDTAVYYCAAVPGWLTSRYYYWGQGTHVTVSS
high polyreactivity
